# TARGET_ENTITY: Neutrophil elastase (Homo sapiens) (UniProt P08246)
# Sequence (P08246 whole entry): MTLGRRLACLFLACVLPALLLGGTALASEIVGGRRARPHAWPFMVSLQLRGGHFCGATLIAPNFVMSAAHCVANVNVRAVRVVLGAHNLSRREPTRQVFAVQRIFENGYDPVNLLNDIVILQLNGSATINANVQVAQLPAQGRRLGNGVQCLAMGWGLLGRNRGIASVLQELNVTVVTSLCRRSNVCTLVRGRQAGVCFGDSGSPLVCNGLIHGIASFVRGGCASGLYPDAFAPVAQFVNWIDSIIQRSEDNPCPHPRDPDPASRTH
# ASSAY_SUMMARY: Inhibitory activity against human Leukocyte elastase
QUANTITY_KIND: K obs / 1 (M⁻¹ s⁻¹)

[[record]]
compound = "COC(=O)C(Cc1ccccc1)NC(=O)S(=O)(=O)O (racemic)"
u = "M⁻¹ s⁻¹"
recorded_value = 550


[a] O=C(Nc1cn(-c2ccccc2)cn1)ON1C(=O)CCC1=O
[b] O=C(Nc1cn(-c2cccc(C(F)(F)F)c2)cn1)n1ccccc1=O
Query: Thinking about recorded K obs / 1 values, which is higher, a or b ? Indicate which entry you chose by stating its label.
Response: b
(b: 11700 M⁻¹ s⁻¹, a: 927 M⁻¹ s⁻¹)

[P] O=C(NCCc1ccccc1)n1ccnc1
[Q] COC(=O)C(Cc1ccccc1)NC(=O)ON1C(=O)CCC1=O (stereo unspecified)
[R] O=C(Nc1cn(-c2ccccc2)cn1)n1ccccc1=O
Query: Order the records so the highest K obs / 1 appears first and the lowest last. Answer by listing the labels in the requested order.
Response: Q, R, P

The reported measurements were obtained from ChEMBL document CHEMBL1123501.
